species on record: Rattus norvegicus; experiment: DrugMatrix - Regimen: Daily Repeat; format: toxicity, organism-based, Sprague-Dawley; set-up: regimen Daily Repeat, gender Male, age 6-8 weeks; conditions: in vivo, po, 0 mg/kg, 120 h, tissue Blood, route oral GAVAGE, dose level Control, time 5 day, vehicle .5 % CMC
readout-kind: ERYTHROCYTE COUNT (x10E6/uL)
Note: unit x10E6/uL is implicit; provide only the numeric part.

>>> assay_result("O=[N+]([O-])c1ccccc1")
6.69
>>> assay_result("Cc1onc(-c2ccccc2)c1-c1ccc(S(N)(=O)=O)cc1")
7.12
>>> assay_result("CC[C@@H](CO)NCCN[C@@H](CC)CO")
6.05

For the next question, use this compound.
State its ERYTHROCYTE COUNT for this compound: CNC(=C[N+](=O)[O-])NCCSCc1ccc(CN(C)C)o1
5.71
